Taken from paper PMC8080777.

For each record, write down the corresponding TGR5 Efficacy (%) (10 µM).
measurementTarget: TGR5 (Homo sapiens)
Construct: host or cells: CHO cells
Sequence (Q8TDU6 whole entry): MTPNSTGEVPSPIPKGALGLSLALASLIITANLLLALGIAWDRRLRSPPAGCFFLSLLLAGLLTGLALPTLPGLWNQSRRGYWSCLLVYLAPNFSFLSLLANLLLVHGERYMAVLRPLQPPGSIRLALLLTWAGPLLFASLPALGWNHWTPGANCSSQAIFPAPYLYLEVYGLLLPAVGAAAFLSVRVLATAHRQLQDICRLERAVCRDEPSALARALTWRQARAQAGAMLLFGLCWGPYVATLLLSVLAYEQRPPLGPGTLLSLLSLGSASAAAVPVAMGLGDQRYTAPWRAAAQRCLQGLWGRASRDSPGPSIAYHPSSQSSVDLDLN
assayText: TGR5 cAMP assay in CHO cells transfected with TGR5 (cAMP Hunter eXpress, Discover X)
Assay type: cell-based
conditionLabel: 10 µM; % vs INT-767 10 µM as 100%

COC(=O)/C=C/c1cccc(N(Cc2ccc(-c3ccc(N(C)C)cc3)cc2)C(=O)c2ccncc2C)c1F [Compound 13u]	-2.5%
COc1ccc(C(=O)N(Cc2ccc(-c3ccc(N(C)C)cc3)cc2)c2cc(Cl)cc(Cl)c2)c(Cl)c1 [Compound 13ag]	1.1%
COc1ccc([C@H]2CC[C@H](CN(C(=O)c3ccncc3C)c3cc(Cl)cc(Cl)c3)CC2)cc1C [Compound 20d]	28.8%

Now examine the next entry.
# value lookup — system TGR5 (Homo sapiens), readout TGR5 Efficacy (%) (10 µM), item Cc1cnccc1C(=O)N(C[C@H]1CC[C@H](c2ccc(N(C)C)cc2)CC1)c1cc(Cl)cc(Cl)c1 [Compound 20b]
31.1%
